System: HCC-2998 colon
ASSAY METHOD TEXT: NCI-60 one-dose screen, 48 h (100 = growth as untreated, 0 = no growth, -100 = all killed)
MEASUREMENT CONDITIONS: 10 µM
This is part of a sample that, as a whole, favours compounds with a hit. Of some 83,000 tested, about 20% had one in any assay.
Exam item: assign 1 to entries whose growth is below 50% and -1 to entries at or above 50%. Note that a value of exactly 50% receives -1.

Sample answers from the record:
MOLECULE | TARGET SYSTEM | GROUP LABEL
COc1ccc(-n2nnc3c(sc4ccccc43)c2=O)cc1 | HCC-2998 colon | -1
CCCCCCCCCCCCc1ccc(C(=O)/C=C/C(=O)O)cc1 | HCC-2998 colon | -1
COc1ccc(C(=O)n2nc(CC(=O)NCc3ccccc3)nc2N)cc1 | HCC-2998 colon | -1
COc1ccc(-c2nsc3c2NC(=O)CC3c2cccc(Cl)c2)cc1 (stereo not given) | HCC-2998 colon | 1
CC(=O)Oc1c(C)c(C)c2c(c1C)CCC(C)(CC(=O)OCCCCCCCCCCC[P+](c1ccccc1)(c1ccccc1)c1ccccc1)O2 (stereo not given) | HCC-2998 colon | 1
CCCCCCCCCCN=C(c1ccc(N(C)C)cc1)c1ccc(N(C)C)cc1 | HCC-2998 colon | -1
Cc1cc(O)c(C2=NN(c3ccc(S(N)(=O)=O)cc3)C(c3ccc(N(C)C)cc3)C2)c(C)c1Cl (stereo not given) | HCC-2998 colon | -1
COc1ccc(-c2ccccc2)cc1C(=O)c1ccc(-c2ccccc2)cc1 | HCC-2998 colon | -1

Field: next molecule
Query :: Criterion: growth strictly below 50%. Is it met by CCOC(=S)Sc1ccc([N+](=O)[O-])cc1[N+](=O)[O-] ?
Result :: -1
